Each entry below carries its recorded TGI.
# Test system: T-47D breast
# test name: NCI tumour cell line growth inhibition, 48 h
quantity: TGI

compound=O=C1NC(N2CCOCC2)=N/C1=C\c1ccccc1O reported_measurement="> 100 µM"
compound=CCOC(=O)/C=C(/C(=O)OCC)n1cc(C)c(=O)n(Cc2cnnn2CCCCOC(C)=O)c1=O reported_measurement="71.1 µM"
compound=CC1(C)C(=O)/C(=C\c2ccco2)C[C@]2(C)[C@H]3CC=C4[C@@H]5C[C@](C)(C(=O)O)CC[C@]5(C)CC[C@@]4(C)[C@]3(C)CC[C@@H]12 reported_measurement="35.1 µM"
compound="CN(C)CCCOC(=O)C(O)(Cc1ccccc1)C1CC1 (stereo not given)" reported_measurement="> 100 µM"
compound="CC(NC(=O)c1ccc(OP(=O)(OCC2=CC(=O)c3ccccc3C2=O)N(C)CCCCCl)cc1)c1ccc(OCC2CCCCC2)c(C(N)=O)c1 (stereo not given)" reported_measurement="10.5 µM"
compound=Cc1cc(O)cc(C)c1/C=C/c1cncc(C(=O)N(C)C)c1 reported_measurement="> 25 µM"
compound="O=C(CCCC(=O)N1CC(CCl)c2ccc([N+](=O)[O-])cc21)N1CC(CCl)c2ccc([N+](=O)[O-])cc21 (stereo not given)" reported_measurement="> 100 µM"
compound=CN(C)Cc1cc(C(=O)O)cc(CN(C)C)c1O reported_measurement="> 100 µM"
compound="OC1CCC(C2C3CCCCC3C3CCCCC3C2C2CCC(O)CC2)CC1 (stereo not given)" reported_measurement="11 µM"
compound=Cc1ccc(S(=O)(=O)NCCN2c3nc4ccccc4cc3Sc3cc4ccccc4nc32)cc1 reported_measurement="> 100 µM"

* * *

Each entry below carries its recorded TGI.
# System: SF-295 CNS
# test name: NCI tumour cell line growth inhibition, 48 h
quantity: TGI

compound=CC(=O)Nc1ccc(Nc2nc(=O)[nH]c(=O)[nH]2)cc1 assayed_target="SF-295 CNS" reported_measurement="> 100 µM"
compound="O=C1/C(=C/c2cccs2)N=C(c2ccccc2)N1C1Nc2cc3c(cc2S1)NC(N1C(=O)/C(=C/c2cccs2)N=C1c1ccccc1)S3 (configuration not stated)" assayed_target="SF-295 CNS" reported_measurement="> 100 µM"
compound=CN(C)Cc1cc(C(=O)/C=C/c2ccc(/C=C/C(=O)c3cc(CN(C)C)c(O)c(CN(C)C)c3)cc2)cc(CN(C)C)c1O assayed_target="SF-295 CNS" reported_measurement="> 100 µM"
compound=C=C[C@H]1CN2CC[C@H]1C[C@@H]2[C@@H](O)c1ccnc2ccccc12 assayed_target="SF-295 CNS" reported_measurement="> 100 µM"
compound=Cc1nc2c(Br)cc(Br)cc2c(=O)n1-c1ccccc1N assayed_target="SF-295 CNS" reported_measurement="> 100 µM"
compound=c1ccc2c(NCCCCCCCCNc3c4ccccc4nc4ccccc34)c3ccccc3nc2c1 assayed_target="SF-295 CNS" reported_measurement="2.21 µM"
compound=Cn1c2ccccc2n2c3nc4ccccc4nc3c(C#N)c12 assayed_target="SF-295 CNS" reported_measurement="> 100 µM"
compound=CN(C)CCNC(=O)c1cc([N+](=O)[O-])cc2ccc(-c3ccccc3)nc12 assayed_target="SF-295 CNS" reported_measurement="> 57.3 µM"
compound=Cn1cnc([N+](=O)[O-])c1Sc1ncnc2nc[nH]c12 assayed_target="SF-295 CNS" reported_measurement="> 100 µM"
compound="C=CCN(N=O)C(=O)N(CCC)CCCC(NC(C)=O)C(=O)NCc1ccccc1 (configuration not stated)" assayed_target="SF-295 CNS" reported_measurement="> 100 µM"
compound=O=C1CSC2(CCN(CCCN3c4ccccc4Sc4ccc(Cl)cc43)CC2)N1 assayed_target="SF-295 CNS" reported_measurement="22 µM"
compound=O=C(N/N=C/c1ccc(F)cc1)c1[nH]c2ccc(I)cc2c1-c1ccccc1 assayed_target="SF-295 CNS" reported_measurement="1.5 µM"
compound=CN(C)CCNC(=O)c1cccc(CO)c1[N+](=O)[O-] assayed_target="SF-295 CNS" reported_measurement="> 100 µM"
compound="COC(=O)C(Cc1ccccc1)NC(=O)CNC(=O)CSc1nnc(COc2ccc(Cl)cc2)n1-c1ccccc1 (configuration not stated)" assayed_target="SF-295 CNS" reported_measurement="31.7 µM"
compound=OCCCNCc1ccccn1 assayed_target="SF-295 CNS" reported_measurement="> 100 µM"
compound=CC/C=C\C[C@H](O)C/C=C1/C(=O)C=C[C@@H]1C/C=C\CCCC(N)=O assayed_target="SF-295 CNS" reported_measurement="6.23 µM"
compound=Brc1ccc2c(c1)C1=C(CO2)Cc2ccccc2O1 assayed_target="SF-295 CNS" reported_measurement="35.4 µM"
compound=COc1ccc(CNc2nc3ccccc3nc2-c2cccs2)cc1 assayed_target="SF-295 CNS" reported_measurement="> 100 µM"
compound="CC1CC[C@]2(C(=O)O)CCC3(C)C(=C2[C@H]1C)C=CC1[C@@]2(C)CC[C@H](O)C(C)(C)C2CC[C@]13C (some centres not stated)" assayed_target="SF-295 CNS" reported_measurement="47 µM"
compound=CC(=O)O/C(C)=C\C(=O)O/N=C(\N)c1ccc(C)cc1 assayed_target="SF-295 CNS" reported_measurement="> 100 µM"
compound=CCCN(CCC)c1c([N+](=O)[O-])cc(S(N)(=O)=O)cc1[N+](=O)[O-] assayed_target="SF-295 CNS" reported_measurement="32.3 µM"
compound=CN(C)CN1C(=O)S/C(=C2\C(=O)N(CN(C)C)c3ccccc32)C1=O assayed_target="SF-295 CNS" reported_measurement="> 100 µM"

Origin of the recorded values: PubChem BioAssay (NCI)
